- Test system: TAB109
- Assay Method Text: qHTS profiling for inhibitors of Plasmodium falciparum proliferation (AID 504749); further: nearly all actives have a fitted effect of over 60% in size
- Condition Summary: P. falciparum in erythrocytes, SYBR Green DNA, 72 h; series mostly up to 28.7 µM
Results filed as inconclusive are left out. Activity calls are given as the source filed them. The call rests on the fitted dose curve; in most records, active means well fitted inhibition curve with a large enough effect; inconclusive means small, poorly fitted or top-dose-only effect; inactive means flat fitted curve, though single readings scatter.
Answer with one of the outcomes given here: active, inactive

Ask: Hello, I am checking results. What call was entered for O=C(O)C(Cl)(Cl)Cl ?
Reply: inactive

Ask: Hello, I am checking results. What call was entered for Clc1ccc(Cl)cc1 ?
Reply: inactive

Ask: Hello, I am checking results. What call was entered for CCC1C(C)=NN=C(c2ccc(OC)c(OC)c2)c2cc(OC)c(OC)cc21 (stereo not drawn) ?
Reply: inactive

Ask: Hello, I am checking results. What call was entered for CCC1(C)CC(=O)NC(=O)C1 ?
Reply: inactive

Ask: Hello, I am checking results. What call was entered for CCC1(c2ccccc2)C(=O)NC(=O)N(C(=O)c2ccccc2)C1=O (stereo not drawn) ?
Reply: inactive

Ask: Hello, I am checking results. What call was entered for CCCCCCCCOC(=O)c1ccccc1C(=O)OCCCCCCCC ?
Reply: inactive

Ask: Hello, I am checking results. What call was entered for Cn1sc(Cl)cc1=O ?
Reply: inactive

Ask: Hello, I am checking results. What call was entered for CCC1(c2ccccc2)C(=O)NC(=O)NC1=O ?
Reply: inactive

Ask: Hello, I am checking results. What call was entered for CC(N)Cc1ccc(O)cc1 (stereo not drawn) ?
Reply: inactive

Ask: Hello, I am checking results. What call was entered for C#CC(C)(O)CC (stereo not drawn) ?
Reply: inactive

Ask: Hello, I am checking results. What call was entered for Oc1cc(Cl)c(Cl)cc1Cl ?
Reply: inactive

Ask: Hello, I am checking results. What call was entered for CCON=O ?
Reply: inactive

Ask: Hello, I am checking results. What call was entered for O[C@H]1[C@H]2[C@H](O)CCCN2C[C@H]1O ?
Reply: inactive

Ask: Hello, I am checking results. What call was entered for O=C1CN(O)C(c2ccccc2)=c2cc(Cl)ccc2=N1 ?
Reply: inactive

Ask: Hello, I am checking results. What call was entered for CCC(=O)O[C@@](Cc1ccccc1)(c1ccccc1)[C@@H](C)CN(C)C ?
Reply: inactive

Ask: Hello, I am checking results. What call was entered for O=c1[nH]c(=O)n(Cl)c(=O)n1Cl ?
Reply: inactive

Ask: Hello, I am checking results. What call was entered for O=C1CC[C@@]2(O)C3Cc4ccc(O)c5c4C2(CCN3CC2CC2)[C@H]1O5 (stereo partly drawn) ?
Reply: inactive

Ask: Hello, I am checking results. What call was entered for COc1ccc(OC)c(C(O)C(C)N)c1 (stereo not drawn) ?
Reply: inactive

Ask: Hello, I am checking results. What call was entered for O=P(O)(O)C(Cl)(Cl)P(=O)(O)O ?
Reply: inactive

Ask: Hello, I am checking results. What call was entered for Oc1cccc[c]1[Hg][Cl] ?
Reply: active

Ask: Hello, I am checking results. What call was entered for O=C1CCO1 ?
Reply: inactive

Ask: Hello, I am checking results. What call was entered for COC1=CC=C2[C@H]3Cc4ccc(OC)c5c4[C@@]2(CCN3C)[C@H]1O5 ?
Reply: inactive

Ask: Hello, I am checking results. What call was entered for C/C(=C\c1csc(C)n1)[C@@H]1C[C@@H]2O[C@]2(C)CCC[C@H](C)[C@H](O)[C@@H](C)C(=O)C(C)(C)[C@@H](O)CC(=O)O1 ?
Reply: active

Ask: Hello, I am checking results. What call was entered for CNC(=O)OCC[N+](C)(C)C ?
Reply: inactive

Ask: Hello, I am checking results. What call was entered for C[N+]1(C)C2CCC1CC(OC(=O)c1c[nH]c3ccccc13)C2 (stereo not drawn) ?
Reply: inactive

Ask: Hello, I am checking results. What call was entered for CCCCNCC(O)c1ccc(O)cc1 (stereo not drawn) ?
Reply: inactive

Ask: Hello, I am checking results. What call was entered for ClC=C(Cl)Cl ?
Reply: inactive

Ask: Hello, I am checking results. What call was entered for N#CC1(N2CCCCC2)CCCCC1 ?
Reply: inactive

Ask: Hello, I am checking results. What call was entered for O=C(NC(=O)c1c(F)cccc1F)Nc1ccc(Cl)c(Oc2ncc(C(F)(F)F)cc2Cl)c1 ?
Reply: inactive

Ask: Hello, I am checking results. What call was entered for O=c1[nH]cc(N(CCCl)CCCl)c(=O)[nH]1 ?
Reply: inactive

Ask: Hello, I am checking results. What call was entered for O=S(=O)(O)c1cc(O)ccc1O ?
Reply: inactive

Ask: Hello, I am checking results. What call was entered for CCOP(=O)(OCC)O/C(=C/Cl)c1ccc(Cl)cc1Cl ?
Reply: inactive

Ask: Hello, I am checking results. What call was entered for O=C/C=C/c1ccccc1 ?
Reply: inactive

Ask: Hello, I am checking results. What call was entered for N#CC(C#N)=Cc1cc(O)c(O)c(O)c1 ?
Reply: active

Ask: Hello, I am checking results. What call was entered for C[N+]1(C)CCCCC1COC(=O)C(O)(c1ccccc1)c1ccccc1 (stereo not drawn) ?
Reply: inactive

Ask: Hello, I am checking results. What call was entered for c1ccc2sc(SNC3CCCCC3)nc2c1 ?
Reply: inactive

Ask: Hello, I am checking results. What call was entered for CCCCCCCCCC(=O)O[C@H]1CC[C@H]2[C@@H]3CCC4=CC(=O)CC[C@]4(C)[C@H]3CC[C@]12C ?
Reply: inactive

Ask: Hello, I am checking results. What call was entered for Clc1ccccc1Cl ?
Reply: inactive

Ask: Hello, I am checking results. What call was entered for CC(C)CCON=O ?
Reply: inactive

Ask: Hello, I am checking results. What call was entered for CCOC(=O)c1ccccc1C(=O)OCC ?
Reply: inactive

Ask: Hello, I am checking results. What call was entered for C=CCN(C1=NCCN1)c1c(Cl)cccc1Cl ?
Reply: inactive

Ask: Hello, I am checking results. What call was entered for CC(C)(O)C1C2OC(=O)C1C1(O)CC3OC34C(=O)OC2C14C (stereo not drawn) ?
Reply: inactive

Ask: Hello, I am checking results. What call was entered for O=C1CCCCC1CN1CCCCC1 (stereo not drawn) ?
Reply: inactive
